tested on: glycogen synthase kinase-3 (GSK3A per assay name; protocol says GSK3B); assay: compounds binding glycogen synthase kinase-3 – biochemical, small-molecule microarray, 635 nm fluorescence, GSK3A, primary screen (AID 1103); settings: fluorescence 635 nm, higher = more signal; also: the record names both GSK3A and GSK3B
Entries and their composite z-score

[[record]]
compound = "N#Cc1ccc(NN2C(C(O)C3CC=CCC3)C=CC3C(=O)N(c4ccccc4)C(=O)C32)cc1 (stereo not given)"
study_system = "glycogen synthase kinase-3 (GSK3A per assay name; protocol says GSK3B)"
endpoint_value = 0.79

[[record]]
compound = "COC(=O)[C@@]1(Cc2ccc(F)cc2)[C@H]2c3cc(C(=O)N4CCCC4)n(CCc4ccccn4)c3C[C@H]2CN1C(=O)c1ccccc1"
study_system = "glycogen synthase kinase-3 (GSK3A per assay name; protocol says GSK3B)"
endpoint_value = -0.73

[[record]]
compound = "COCCOC(=O)N1C(=O)[C@@]2(c3cc(C#CCCO)ccc31)[C@H](C(N)=O)[C@H]1C(=O)O[C@H](c3ccccc3)[C@H](c3ccccc3)N1[C@@H]2c1ccccc1OCCO"
study_system = "glycogen synthase kinase-3 (GSK3A per assay name; protocol says GSK3B)"
endpoint_value = 1.3


# composite z-score of COc1ccc([Si](C)(C)[C@@H]2[C@@H](CC(=O)N3CCC[C@H]3CO)O[C@]3(C(=O)N(Cc4cccc(N5CCCCC5=O)c4)c4ccccc43)[C@H]2C)cc1 = 0.523

Sample O=C(NCc1ccc(F)cc1)[C@H]1C[C@H]2C(=O)N3CCC[C@H]3C(=O)N2[C@H]1c1ccc(O)cc1 ; composite z-score observed: -0.73

FYI, the data here is from PubChem BioAssay.
